This collection of values is drawn from patent US5563155A.

Assay: in vivo
Design: species or system mice
Conditions: mouse, po

# compound, readout-relation, NOAEL at 96 h [mg/kg]
rows = [
    ("C[C@H](N)[C@@H]1CCN(c2nc3c(cc2F)c(=O)c(C(=O)O)cn3C2CC2)C1 (relative stereo) [reference compound]", "=", 55),
    ("CN[C@H](C)[C@@H]1CCN(c2c(F)c(N)c3c(=O)c(C(=O)O)cn(C4CC4)c3c2F)C1 [Example 41]", "=", 30),
    ("C[C@H](N)[C@@H]1CCN(c2nc3c(cc2F)c(=O)c(C(=O)O)cn3C2CC2)C1 [Example 7]", "=", 30),
    ("CCN[C@@H](C)[C@@H]1CCN(c2c(F)cc3c(=O)c(C(=O)O)cn(C4CC4)c3c2OC)C1 [Example 18]", ">", 100),
    ("C[C@H]([C@@H]1CCN(c2nc3c(cc2F)c(=O)c(C(=O)O)cn3C2CC2)C1)N(C)C [Example 72]", "<", 30),
]

----------
Tested on: Strep. faecalis MGH-2
Assay: in vitro antibacterial activity, microtitration dilution (MIC), Strep. faecalis MGH-2
Type: cell-based
Conditions: Enterococcus faecalis, MGH2, read-out: minimum inhibiting concentration (MIC)
Entries and their measured MIC follow.
assay-readout: MIC

# compound, assay-readout, result
records = [
    ("COc1c(N2CC[C@@H]([C@H](C)N)C2)c(F)cc2c(=O)c(C(=O)O)cn(C3CC3)c12 [Example 44]", "MIC", "0.006 µg/mL"),
    ("CN[C@@H](C)[C@@H]1CCN(c2c(F)c(C)c3c(=O)c(C(=O)O)cn(C4CC4)c3c2OC)C1 [Example 61]", "MIC", "0.025 µg/mL"),
    ("CCN[C@H](C)[C@@H]1CCN(c2nc3c(cc2F)c(=O)c(C(=O)O)cn3-c2ccc(F)cc2F)C1 [Example 51]", "MIC", "0.4 µg/mL"),
    ("CCN[C@@H](C)[C@H]1CCN(c2c(F)cc3c(=O)c(C(=O)O)cn(C4CC4)c3c2OC)C1 [Example 20]", "MIC", "0.4 µg/mL"),
    ("CCOc1c(N2CC[C@@H]([C@H](C)N)C2)c(F)cc2c(=O)c(C(=O)O)cn(C3CC3)c12 [Example 49]", "MIC", "0.025 µg/mL"),
    ("CN[C@@H](C)[C@@H]1CCN(c2nc3c(cc2F)c(=O)c(C(=O)O)cn3C2CC2)C1 [Example 21]", "MIC", "0.05 µg/mL"),
    ("C[C@H]([C@@H]1CCN(c2nc3c(cc2F)c(=O)c(C(=O)O)cn3C2CC2)C1)N(C)C [Example 72]", "MIC", "0.1 µg/mL"),
]

----------
Tested on: Pseud. aeruginosa UI-18
Assay: median protective dose in mice given lethal systemic infections, Pseud. aeruginosa UI-18
Assay type: in vivo
Conditions: Pseudomonas aeruginosa, UI18, PO, single dose at time of challenge, read-out: median protective dose (PD50)
Param label: returns yes when ED50 < 20 mg/kg, returns no otherwise, including exact equality.

# molecule, class-name
data = [
    ("C[C@H](N)[C@@H]1CCN(c2nc3c(cc2F)c(=O)c(C(=O)O)cn3C2CC2)C1 [Example 7]", "yes"),
    ("C[C@@H](N)[C@H]1CCN(c2nc3c(cc2F)c(=O)c(C(=O)O)cn3C2CC2)C1 [Example 5]", "no"),
    ("C[C@@H](N)[C@@H]1CCN(c2nc3c(cc2F)c(=O)c(C(=O)O)cn3C2CC2)C1 [Example 8]", "no"),
    ("C[C@H]([C@@H]1CCN(c2nc3c(cc2F)c(=O)c(C(=O)O)cn3C2CC2)C1)N(C)C [Example 72]", "yes"),
    ("C[C@H](N)[C@H]1CCN(c2nc3c(cc2F)c(=O)c(C(=O)O)cn3C2CC2)C1 [Example 6]", "no"),
]

----------
Assay: in vivo
Set-up: species or system mice
Conditions: mouse, po
assay-readout: NOAEL at 96 h

# molecular-string, result
measured = [
    ("CN[C@@H](C)[C@@H]1CCN(c2c(F)c(N)c3c(=O)c(C(=O)O)cn(C4CC4)c3c2F)C1", "< 30 mg/kg"),
    ("C[C@@H](N)[C@H]1CCN(c2nc3c(cc2F)c(=O)c(C(=O)O)cn3C2CC2)C1", "> 100 mg/kg"),
    ("C[C@H](N)[C@@H]1CCN(c2nc3c(cc2F)c(=O)c(C(=O)O)cn3-c2ccc(F)cc2F)C1", "> 100 mg/kg"),
    ("CCN[C@H](C)[C@@H]1CCN(c2c(F)cc3c(=O)c(C(=O)O)cn(C4CC4)c3c2OC)C1", "> 100 mg/kg"),
    ("C[C@@H]([C@@H]1CCN(c2cc3c(cc2F)c(=O)c(C(=O)O)cn3C2CC2)C1)N(C)C", "< 30 mg/kg"),
    ("C[C@H](N)[C@H]1CCN(c2nc3c(cc2F)c(=O)c(C(=O)O)cn3C2CC2)C1", "> 100 mg/kg"),
    ("C[C@@H](N)[C@@H]1CCN(c2nc3c(cc2F)c(=O)c(C(=O)O)cn3C2CC2)C1", "55 mg/kg"),
    ("CN[C@@H](C)[C@@H]1CCN(c2c(F)cc3c(=O)c(C(=O)O)cn(C4CC4)c3c2OC)C1", "> 100 mg/kg"),
]

----------
// endpoint MIC / system Strep. faecalis MGH-2
Counter-ions that a name gives are not always drawn.

# compound, MIC (µg/mL)
rows = [
    ("CN[C@@H](C)[C@H]1CCN(c2nc3c(cc2F)c(=O)c(C(=O)O)cn3C2CC2)C1", 0.8),
    ("CN[C@@H](C)[C@@H]1CCN(c2c(F)cc3c(=O)c(C(=O)O)cn(C4CC4)c3c2OC)C1", 0.025),
    ("CN[C@@H](C)[C@@H]1CCN(c2nc3c(cc2F)c(=O)c(C(=O)O)cn3-c2ccc(F)cc2F)C1 [Example 64, monohydrochloride]", 0.2),
    ("C[C@@H](N)[C@@H]1CCN(c2nc3c(cc2F)c(=O)c(C(=O)O)cn3-c2ccc(F)cc2F)C1", 0.1),
    ("Cc1c(F)c(N2CC[C@@H]([C@@H](C)N)C2)cc2c1c(=O)c(C(=O)O)cn2-c1ccc(F)cc1F", 0.1),
    ("CCN[C@@H](C)[C@@H]1CCN(c2cc3c(c(N)c2F)c(=O)c(C(=O)O)cn3C2CC2)C1", 0.05),
    ("CN[C@H](C)[C@@H]1CCN(c2c(F)c(N)c3c(=O)c(C(=O)O)cn(C4CC4)c3c2F)C1", 0.013),
]

----------
Counter-ions that a name gives are not always drawn.
// endpoint MIC / system Staph. aureus UC-76
assay-readout: MIC (µg/mL)

# compound, readout-relation, quantitative-result
measured = [
    ("CN[C@@H](C)[C@H]1CCN(c2c(F)c(N)c3c(=O)c(C(=O)O)cn(C4CC4)c3c2F)C1 [Example 35]", "=", 0.05),
    ("C[C@@H]([C@@H]1CCN(c2cc3c(cc2F)c(=O)c(C(=O)O)cn3C2CC2)C1)N(C)C [Example 73]", "=", 0.05),
    ("CCN[C@H](C)[C@H]1CCN(c2c(F)cc3c(=O)c(C(=O)O)cn(C4CC4)c3c2OC)C1 [Example 19]", "=", 0.05),
    ("CCN[C@@H](C)[C@@H]1CCN(c2nc3c(cc2F)c(=O)c(C(=O)O)cn3-c2ccc(F)cc2F)C1 [Example 50]", "=", 0.013),
    ("C[C@H](N)[C@@H]1CCN(c2c(F)cc3c(=O)c(C(=O)O)cn(C4CC4)c3c2C(F)(F)F)C1 [Example 60]", "=", 0.006),
    ("Cc1c(F)c(N2CC[C@@H]([C@H](C)N)C2)cc2c1c(=O)c(C(=O)O)cn2-c1ccc(F)cc1F [Example 65, monohydrochloride]", "=", 0.006),
    ("CN[C@H](C)[C@H]1CCN(c2c(F)c(N)c3c(=O)c(C(=O)O)cn(C4CC4)c3c2F)C1 [Example 34]", "=", 0.4),
    ("CCOc1c(N2CC[C@@H]([C@H](C)N)C2)c(F)cc2c(=O)c(C(=O)O)cn(C3CC3)c12 [Example 49]", "≤", 0.003),
    ("COc1c(N2CC[C@@H]([C@H](C)N)C2)c(F)cc2c(=O)c(C(=O)O)cn(C3CC3)c12 [Example 44]", "≤", 0.003),
    ("C[C@@H](N)[C@H]1CCN(c2nc3c(cc2F)c(=O)c(C(=O)O)cn3C2CC2)C1 [Example 5]", "=", 0.025),
    ("CN[C@H](C)[C@@H]1CCN(c2nc3c(cc2F)c(=O)c(C(=O)O)cn3C2CC2)C1 [Example 22]", "=", 0.05),
    ("C[C@H](N)[C@@H]1CCN(c2c(F)c(N)c3c(=O)c(C(=O)O)cn(C4CC4)c3c2F)C1 [Example 58]", "=", 0.003),
    ("CCN[C@@H](C)[C@@H]1CCN(c2c(F)cc3c(=O)c(C(=O)O)cn(C4CC4)c3c2OC)C1 [Example 18]", "=", 0.003),
    ("CCN[C@@H](C)[C@@H]1CCN(c2cc3c(c(C)c2F)c(=O)c(C(=O)O)cn3C2CC2)C1 [Example 52]", "=", 0.013),
    ("Cc1c(F)c(N2CC[C@@H]([C@@H](C)N)C2)cc2c1c(=O)c(C(=O)O)cn2-c1ccc(F)cc1F [Example 46]", "=", 0.013),
]
